Each recorded value in this set is attributed to patent US20120035161A1.

Assay: Phospholipidosis assay (LipidTox)
Format: cell-based
Settings: human
value.type: cytotoxicity at 48 h, 25 µM
Express your answer as a number followed by its unit.

Suppose we examine the compound Cc1cccc(CN2CCN(C(c3ccccc3)c3ccc(Cl)cc3)CC2)c1 (stereo not shown) [Meclizine, meclizine, reference compound] ; what cytotoxicity at 48 h, 25 µM value has been reported?
0%

----------
Tested on: Aspergillus fumigatus-based mouse asthma model
Experiment: Aspergillus fumigatus-based mouse asthma model, lung resistance
Type: in vivo
Conditions: 20 mg/ml, intraperitoneally; A. fumigatus insult; day 29
For each record, write down the corresponding Lung resistance.
One number for each entry, in cm H2O/ml/s.

# example entries with known answers
molecule	target.under.test	Lung resistance (cm H2O/ml/s)
NCCCN1CCC(CCCN2c3ccccc3Sc3ccc(C(F)(F)F)cc32)CC1	Aspergillus fumigatus-based mouse asthma model	7.25
NCC(=O)NCCN1CCN(CCCN2c3ccccc3Sc3ccc(C(F)(F)F)cc32)CC1	Aspergillus fumigatus-based mouse asthma model	8.5
C[C@@H]1C[C@H]2[C@@H]3CCC4=CC(=O)C=C[C@]4(C)[C@@]3(F)[C@@H](O)C[C@]2(C)[C@@]1(O)C(=O)CO [Dexamethasone, reference compound]	Aspergillus fumigatus-based mouse asthma model	7.75

Please turn your attention to the following entry.
Quick check: Lung resistance of "FC(F)(F)c1ccc2c(c1)N(CCCN1CCNCC1)c1ccccc1S2" ?
12
